# target system: UniProt:P34972
# Sequence (P34972 whole entry): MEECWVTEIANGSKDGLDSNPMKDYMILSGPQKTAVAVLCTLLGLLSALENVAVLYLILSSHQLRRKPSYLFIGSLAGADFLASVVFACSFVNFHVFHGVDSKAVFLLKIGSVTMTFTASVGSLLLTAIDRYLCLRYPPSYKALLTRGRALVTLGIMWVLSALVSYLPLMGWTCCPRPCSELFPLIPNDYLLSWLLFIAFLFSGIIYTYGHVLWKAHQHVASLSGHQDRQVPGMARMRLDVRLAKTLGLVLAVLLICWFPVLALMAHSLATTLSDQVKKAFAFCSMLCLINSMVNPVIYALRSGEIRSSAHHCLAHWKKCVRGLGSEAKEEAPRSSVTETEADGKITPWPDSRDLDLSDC
# assay info: Binding affinity at human CB2 receptor expressed in CHO-K1 cells at 10 uM
# Format: cell-based
measured attribute: Activity

Q: Query Activity on UniProt:P34972 for CCCCC/C=C/c1c(O)cc(CC=C(C)C)c(O)c1C=O [TETRAHYDROAUROGLAUCIN]
Ans: < 40%

Q: What do we get for CCCCC/C=C/c1c(O)cc(CC=C(C)C)c(O)c1CO ?
Ans: < 40%

Q: Similarly, CCC/C=C/c1cc2c(C=O)c(O)c(CC=C(C)C)cc2o1 ?
Ans: < 40%

Q: Further, for C/C=C/C=C/C=C/c1c(O)cc(CC=C(C)C)c(O)c1C=O ?
Ans: 43.1%

Q: Similarly, CCC/C=C/C=C/c1c(O)cc(CC=C(C)C)c(O)c1C=O ?
Ans: < 40%

Q: Repeat for the following compound: CCCCCCCc1c(O)cc(CC=C(C)C)c(O)c1C=O
Ans: < 40%

Q: Try this compound next: C=CC(C)(C)c1[nH]c2c(CC=C(C)C)cc(CC=C(C)C)cc2c1C[C@@H]1NC(=O)[C@H](C)NC1=O
Ans: < 40%

Q: Subsequent entry: Cc1c(O)cc(O)c2c1COC2=O
Ans: < 40%

###

# target system: Cannabinoid receptor 1 (Homo sapiens)
# Sequence (P21554 whole entry): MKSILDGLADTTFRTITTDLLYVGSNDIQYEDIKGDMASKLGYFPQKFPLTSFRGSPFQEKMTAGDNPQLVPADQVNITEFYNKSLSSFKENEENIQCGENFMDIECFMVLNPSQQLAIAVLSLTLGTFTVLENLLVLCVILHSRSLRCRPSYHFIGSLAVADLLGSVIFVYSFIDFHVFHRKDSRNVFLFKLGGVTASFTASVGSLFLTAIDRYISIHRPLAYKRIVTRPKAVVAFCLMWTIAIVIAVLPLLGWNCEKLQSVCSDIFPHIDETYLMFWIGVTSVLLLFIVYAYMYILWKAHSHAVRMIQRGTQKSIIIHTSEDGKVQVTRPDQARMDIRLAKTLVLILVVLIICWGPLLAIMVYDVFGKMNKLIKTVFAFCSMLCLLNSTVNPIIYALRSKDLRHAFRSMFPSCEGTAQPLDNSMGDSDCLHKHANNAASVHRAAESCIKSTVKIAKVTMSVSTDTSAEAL
# assay info: Displacement of [3H]CP-55,940 from human CB1 receptor expressed in CHO-K1 cells after 90 mins by scintillation counting
measured attribute: IC50 (µM)
Use µM as the unit, but write only the number.

Q: Would you mind telling me what IC50 value was observed for C/C=C/C=C/C=C/c1c(O)cc(CC=C(C)C)c(O)c1C=O ?
Ans: 15.2

###

# target system: Kappa-type opioid receptor (Homo sapiens)
# Sequence (P41145 whole entry): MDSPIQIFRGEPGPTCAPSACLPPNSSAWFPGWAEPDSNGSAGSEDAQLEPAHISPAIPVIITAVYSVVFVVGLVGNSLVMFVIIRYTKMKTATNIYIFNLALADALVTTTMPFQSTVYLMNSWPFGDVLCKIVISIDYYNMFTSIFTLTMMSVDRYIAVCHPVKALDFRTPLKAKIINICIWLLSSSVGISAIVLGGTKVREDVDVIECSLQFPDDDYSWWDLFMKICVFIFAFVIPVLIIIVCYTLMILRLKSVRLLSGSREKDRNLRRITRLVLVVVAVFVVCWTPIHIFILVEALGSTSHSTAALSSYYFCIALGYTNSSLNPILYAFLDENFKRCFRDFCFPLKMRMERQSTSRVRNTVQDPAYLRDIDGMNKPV
# assay info: Displacement of [3H]nor-Binaltorphimine from human kappa opioid receptor expressed in CHO-K1 cells after 60 mins by scintillation counting
measured attribute: IC50 (µM)
A number alone suffices; assume µM.

Q: Given CCCCC/C=C/c1c(O)cc(CC=C(C)C)c2c1CC(O)O2 (stereo unspecified) , state its recorded IC50.
Ans: 32.4

###

# target system: Mu-type opioid receptor (Homo sapiens)
# Sequence (P35372 whole entry): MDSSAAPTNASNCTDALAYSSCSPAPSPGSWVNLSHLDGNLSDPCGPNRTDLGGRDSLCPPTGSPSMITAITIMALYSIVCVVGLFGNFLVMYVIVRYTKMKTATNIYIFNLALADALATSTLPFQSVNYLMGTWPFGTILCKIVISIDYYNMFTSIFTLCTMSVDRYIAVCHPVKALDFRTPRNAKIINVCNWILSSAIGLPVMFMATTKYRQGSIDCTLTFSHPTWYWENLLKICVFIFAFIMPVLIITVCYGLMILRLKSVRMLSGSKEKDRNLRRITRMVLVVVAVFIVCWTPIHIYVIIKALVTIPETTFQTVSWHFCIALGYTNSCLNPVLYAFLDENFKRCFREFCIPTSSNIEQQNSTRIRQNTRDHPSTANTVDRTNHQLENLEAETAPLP
# assay info: Displacement of [3H]DAMGO from human mu opioid receptor expressed in CHO-K1 cells after 60 mins by scintillation counting
measured attribute: pIC50
Note on pIC50: it is the negative log10 of concentration, concentration in mol/L.

Q: What pIC50 value was documented for this molecule, CCCCC/C=C/c1c(O)cc(CC=C(C)C)c(O)c1C=O [TETRAHYDROAUROGLAUCIN] ?
Ans: 5.14
